FYI, the data here is from ChEMBL document CHEMBL2074397.

- Subject of test: Solute carrier family 22 member 6 (SLC22A6) (Homo sapiens)
- Sequence (Q4U2R8 whole entry): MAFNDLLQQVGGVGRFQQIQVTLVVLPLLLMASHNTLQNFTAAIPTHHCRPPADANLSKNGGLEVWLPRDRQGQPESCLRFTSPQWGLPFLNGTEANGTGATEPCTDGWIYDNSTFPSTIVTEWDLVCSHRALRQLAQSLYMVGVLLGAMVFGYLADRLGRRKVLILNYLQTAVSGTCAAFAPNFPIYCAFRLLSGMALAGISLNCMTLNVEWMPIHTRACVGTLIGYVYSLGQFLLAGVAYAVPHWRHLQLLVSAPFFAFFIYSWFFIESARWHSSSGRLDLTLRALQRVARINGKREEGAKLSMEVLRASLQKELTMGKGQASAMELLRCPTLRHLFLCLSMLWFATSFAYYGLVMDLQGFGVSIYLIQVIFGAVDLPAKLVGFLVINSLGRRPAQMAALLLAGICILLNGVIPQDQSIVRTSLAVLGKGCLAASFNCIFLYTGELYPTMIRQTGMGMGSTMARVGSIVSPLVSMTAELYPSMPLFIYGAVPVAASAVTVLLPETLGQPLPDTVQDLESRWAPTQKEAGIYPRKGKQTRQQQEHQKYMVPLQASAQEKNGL
- Assay: TP_TRANSPORTER: inhibition of PAH uptake (PAH: 2 uM, Furosemide: 2000 uM) in Xenopus laevis oocytes
- Format: functional, cell-based, Oocyte
- Set-up: scale not given: the % may be the effect or the level left
- Measurement conditions: Xenopus laevis oocytes expressing SLC22A6, probe PAH, read-out: Activity
Metric: activity at 2000 µM

Compound | Value measured
NS(=O)(=O)c1cc(C(=O)O)c(NCc2ccco2)cc1Cl [FUROSEMIDE] | < 0%
